Test system: NCI-H460 lung
Assay: NCI tumour cell line growth inhibition, 48 h
Field: TGI. Provide a value for each of the molecules that follow.

INSERT INTO results (molecule, reported_measurement) VALUES
  ('N.N.NCCCCCCN.O=C([O-])CC(=O)[O-].O=C([O-])CC(=O)[O-].[Pt+4].[Pt+4]', '> 100 µM'),
  ('FC(F)(F)c1ccc(-c2cnc(Cl)nc2NCc2cc(C(F)(F)F)cc(C(F)(F)F)c2)cc1', '> 100 µM'),
  ('O=c1[nH]c(-c2ccccc2)nc2c1sc1nc3ccccc3n12', '> 100 µM');

Provide TGI for all items below, preserving their order.
1. CC1OC1C(=O)C1(O)C(C)C(O)C23OC2(C(O)c2c(O)cccc2C3=O)C1O (stereo unspecified)
2. O=C1[C@@H]2C[C@@H](O)CN2C(=O)c2ccccc2N1CCCO
3. COc1cccc2c1C(=O)c1ccc3cc(CCl)cc(O)c3c1C2=O
4. COc1cccc(C2SCC(=O)N2c2ccc(-n3c(-c4ccccc4)nc4ccccc4c3=O)cc2)c1OC (stereo unspecified)

0.565 µM
> 100 µM
0.768 µM
> 100 µM

Provide TGI for all items below, preserving their order.
1. O=C1OCC/C1=C/c1ccc(N=Nc2c(O)ccc3ccccc23)cc1
2. O=C(/C=C/c1ccccc1)CSc1nc2ccc(I)cc2c(=O)n1Cc1ccccc1

47.3 µM
> 100 µM

Provide TGI for all items below, preserving their order.
1. COc1cc(/C=C/C(=O)c2sc(NNC(C)=O)nc2C)ccc1O
2. CC(=O)N(CN1C(=O)CCC1C(=O)O)c1cccc(O)c1 (stereo unspecified)

1. > 100 µM
2. > 100 µM

* * *

Tested on: OVCAR-5 ovarian
Test: NCI tumour cell line growth inhibition, 48 h; in the data active = GI50 below about 0.43 µM; inactive = the rest
Valid outcomes are listed here; reply with one: y (active), n (inactive)

The following compounds have reported results that may help.
INSERT INTO results (compound, study_system, assigned_label) VALUES
  ('CCNCCNc1cc(C2CCCCC2)c(C#N)c2nc3ccccc3n12', 'OVCAR-5 ovarian', 'n'),
  ('Cc1ccc2c(c1)C(=O)c1c-2n(CCCBr)c(=O)c2cc([N+](=O)[O-])ccc12', 'OVCAR-5 ovarian', 'n'),
  ('FC(F)(F)c1ccc(-c2cnc(Cl)nc2NCc2cc(C(F)(F)F)cc(C(F)(F)F)c2)cc1', 'OVCAR-5 ovarian', 'n'),
  ('COc1ccc(-c2nn(-c3cccc(Cl)c3)cc2-c2cc(-c3ccccc3)nc(N)n2)cc1', 'OVCAR-5 ovarian', 'n'),
  ('Nc1ccc(-c2ccc(N)cc2I)c(I)c1', 'OVCAR-5 ovarian', 'n'),
  ('COC(=O)C1=C(OC(=O)c2ccc(Cl)cc2)C(C(=O)OC)[C@@]2(O)[C@@H](C(=O)OC)C(c3ccccc3Cl)C[C@@H]1[C@@H]2C(=O)OC (some centres undefined)', 'OVCAR-5 ovarian', 'n'),
  ('Nc1nc(N)c(N=O)c(OCC2CCCCC2)n1', 'OVCAR-5 ovarian', 'n'),
  ('COCCNc1cc(NC(=O)N2CCCc3cc(CN4CCN(C)CC4=O)c(C=O)nc32)ncc1C#N', 'OVCAR-5 ovarian', 'n');

Dear all, I need the recorded test outcome for CC(=O)O[C@H]1CC[C@@]2(C)[C@@H](CC[C@@H]3[C@@H]2CC[C@]2(C)C=C(C=O)C[C@@H]32)C1 , thank you.
n

Dear all, I need the recorded test outcome for N.N.NCCCCCCN.O=C([O-])CC(=O)[O-].O=C([O-])CC(=O)[O-].[Pt+4].[Pt+4] , thank you.
n

Dear all, I need the recorded test outcome for Cc1c(Cl)cccc1NC1=C(Cl)C(=O)N(Cc2ccccc2)C1=O , thank you.
n

Dear all, I need the recorded test outcome for CCN1C(=O)N(CC)C2C1NN=c1s/c(=C\c3cc4ccccc4[nH]3)c(=O)n12 (centres undefined) , thank you.
y

Dear all, I need the recorded test outcome for COc1ccc2c(c1)C(C)Cc1c(Cl)nc(C)nc1N2C (centres undefined) , thank you.
n

Dear all, I need the recorded test outcome for CC(C)N1C(NNC(=O)c2cnccn2)=NS(=O)(=O)c2ccccc21 , thank you.
n

Dear all, I need the recorded test outcome for O=C(OCCBr)c1ccc(Cl)c([N+](=O)[O-])c1 , thank you.
n

Dear all, I need the recorded test outcome for Cn1cc(-c2ccc(-c3cn(C)c4ccc(Cl)cc34)s2)c2cc(Cl)ccc21 , thank you.
n

Dear all, I need the recorded test outcome for C[C@]12CCc3sc(Nc4ccc(O)cc4)nc3C1=CC[C@@H]1[C@@H]2CC[C@]2(C)C(=O)CC[C@@H]12 , thank you.
n

Dear all, I need the recorded test outcome for O=C(CN(/C=C/C(=O)C(F)(F)F)c1ccccc1)c1ccc(Cl)c(Cl)c1 , thank you.
n

Dear all, I need the recorded test outcome for O=C(N/N=C/c1cc([N+](=O)[O-])ccc1O)c1cccc2ccccc12 , thank you.
n
